Molecular target: Phospholipase A2 group V (Homo sapiens) (UniProt P39877)
Sequence (whole entry): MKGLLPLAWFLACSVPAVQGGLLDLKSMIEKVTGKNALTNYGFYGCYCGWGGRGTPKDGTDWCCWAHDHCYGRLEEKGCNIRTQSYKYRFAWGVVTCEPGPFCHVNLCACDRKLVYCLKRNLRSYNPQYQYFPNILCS
Experiment: Inhibition of human group 5 secretory PLA2 at 0.091 mole fraction in mixed-micelles by modified Dole assay
Criterion met means recorded inhibition is 40% or above; Criterion not met means it is below 40%.

Determine whether this molecule has inhibition no lower than 40%: O=C(CCCCc1cccc2ccccc12)C(F)(F)F
Criterion not met

What would you report for O=C(CCCCc1cccc2ccccc12)C(F)(F)C(F)(F)C(F)(F)F ?
Criterion met

What would you report for COc1ccc(CCCCC(=O)C(F)(F)C(F)(F)F)c(OC)c1 ?
Criterion not met

What would you report for O=C(CCCCc1ccc2c(c1)OCO2)C(F)(F)C(F)(F)F ?
Criterion not met

###

Biological target: UniProtKB P47712
Sequence (P47712 whole entry): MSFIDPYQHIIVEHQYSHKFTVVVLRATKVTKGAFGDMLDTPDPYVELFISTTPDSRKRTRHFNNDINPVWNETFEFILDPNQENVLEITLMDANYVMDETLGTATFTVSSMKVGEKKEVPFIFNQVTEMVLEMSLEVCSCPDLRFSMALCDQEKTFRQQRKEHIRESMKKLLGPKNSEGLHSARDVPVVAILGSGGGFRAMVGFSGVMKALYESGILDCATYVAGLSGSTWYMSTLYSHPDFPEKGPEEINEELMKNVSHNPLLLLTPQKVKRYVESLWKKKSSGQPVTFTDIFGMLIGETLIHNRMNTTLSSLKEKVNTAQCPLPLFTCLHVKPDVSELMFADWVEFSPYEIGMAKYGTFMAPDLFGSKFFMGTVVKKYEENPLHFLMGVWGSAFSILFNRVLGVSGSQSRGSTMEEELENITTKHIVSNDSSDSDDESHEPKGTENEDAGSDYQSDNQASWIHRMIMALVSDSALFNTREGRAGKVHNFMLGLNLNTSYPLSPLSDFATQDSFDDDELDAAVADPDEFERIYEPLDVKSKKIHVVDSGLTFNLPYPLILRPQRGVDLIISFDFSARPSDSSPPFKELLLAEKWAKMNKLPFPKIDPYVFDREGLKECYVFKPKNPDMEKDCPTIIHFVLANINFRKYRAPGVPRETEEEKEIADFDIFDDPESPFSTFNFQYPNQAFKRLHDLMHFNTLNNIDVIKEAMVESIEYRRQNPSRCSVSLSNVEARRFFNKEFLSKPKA
Assay: Inhibition of human group 4A cytosolic PLA2 at 0.091 mole fraction in mixed-micelles by modified Dole assay
YES means recorded inhibition is 60% or above; NO means it is below 60%.

Example entries and their recorded answers appear below.
- chem-smiles: "COc1ccc(CCCCC(=O)C(F)(F)F)cc1"
  tested-target: "UniProtKB P47712"
  classification: "NO"
- chem-smiles: "O=C(CCc1ccccc1-c1ccccc1)C(F)(F)F"
  tested-target: "UniProtKB P47712"
  classification: "NO"
- chem-smiles: "O=C(CCCc1ccccc1)C(F)F"
  tested-target: "UniProtKB P47712"
  classification: "NO"
- chem-smiles: "COc1ccc(CCCCC(=O)C(F)(F)F)c(OC)c1"
  tested-target: "UniProtKB P47712"
  classification: "YES"

Determine whether this molecule has inhibition no lower than 60%: COc1ccccc1CCCCC(=O)C(F)(F)C(F)(F)F
NO

What would you report for COc1ccc2cc(CCCCC(=O)C(F)(F)C(F)(F)F)ccc2c1 ?
NO

What would you report for O=C(CCCCc1ccc(F)cc1)C(F)(F)C(F)(F)F ?
NO

###

Biological target: 85/88 kDa calcium-independent phospholipase A2 (Homo sapiens) (UniProt O60733)
Sequence (O60733 whole entry): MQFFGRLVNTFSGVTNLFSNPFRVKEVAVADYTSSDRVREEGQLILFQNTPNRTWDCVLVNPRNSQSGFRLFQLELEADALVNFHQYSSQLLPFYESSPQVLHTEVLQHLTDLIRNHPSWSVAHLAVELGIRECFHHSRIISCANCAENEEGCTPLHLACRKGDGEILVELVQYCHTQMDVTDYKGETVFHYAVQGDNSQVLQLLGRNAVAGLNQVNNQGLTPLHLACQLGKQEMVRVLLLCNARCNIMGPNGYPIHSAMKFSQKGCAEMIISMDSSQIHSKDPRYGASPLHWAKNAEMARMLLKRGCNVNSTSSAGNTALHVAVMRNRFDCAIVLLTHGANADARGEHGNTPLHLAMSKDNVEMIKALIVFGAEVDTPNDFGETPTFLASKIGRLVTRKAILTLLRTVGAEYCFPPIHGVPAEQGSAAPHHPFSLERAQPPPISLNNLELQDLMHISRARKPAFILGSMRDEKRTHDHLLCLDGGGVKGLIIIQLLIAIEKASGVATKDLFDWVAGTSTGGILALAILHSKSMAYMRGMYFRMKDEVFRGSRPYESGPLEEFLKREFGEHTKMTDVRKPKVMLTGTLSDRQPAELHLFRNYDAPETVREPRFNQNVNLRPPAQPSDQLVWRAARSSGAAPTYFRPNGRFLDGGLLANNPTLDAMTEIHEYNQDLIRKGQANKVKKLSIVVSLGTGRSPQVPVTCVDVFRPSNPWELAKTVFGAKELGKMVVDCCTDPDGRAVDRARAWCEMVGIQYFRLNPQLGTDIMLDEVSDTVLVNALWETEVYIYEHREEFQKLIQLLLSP
Experiment: Inhibition of human group 6A calcium-independent PLA2 treated in mixed-micelles by modified Dole assay
reported-metric: XI50 (mole fraction)
# answer = number (no unit)

- chem-smiles: "COc1ccc(CCCCC(=O)C(F)(F)C(F)(F)F)cc1"
  tested-target: "85/88 kDa calcium-independent phospholipase A2 (Homo sapiens) (UniProt O60733)"
  reported-metric: "XI50 (mole fraction)"
  meas-value: 0.0001
- chem-smiles: "COc1ccccc1CCCCC(=O)C(F)(F)C(F)(F)F"
  tested-target: "85/88 kDa calcium-independent phospholipase A2 (Homo sapiens) (UniProt O60733)"
  reported-metric: "XI50 (mole fraction)"
  meas-value: 0.0263
- chem-smiles: "O=C(CCCCc1ccc(F)cc1)C(F)(F)F"
  tested-target: "85/88 kDa calcium-independent phospholipase A2 (Homo sapiens) (UniProt O60733)"
  reported-metric: "XI50 (mole fraction)"
  meas-value: 0.0002
- chem-smiles: "COc1ccc(CCCCC(=O)C(F)(F)C(F)(F)F)c(OC)c1"
  tested-target: "85/88 kDa calcium-independent phospholipase A2 (Homo sapiens) (UniProt O60733)"
  reported-metric: "XI50 (mole fraction)"
  meas-value: 0.0553
- chem-smiles: "O=C(CCCCc1ccc2c(c1)OCO2)C(F)(F)C(F)(F)F"
  tested-target: "85/88 kDa calcium-independent phospholipase A2 (Homo sapiens) (UniProt O60733)"
  reported-metric: "XI50 (mole fraction)"
  meas-value: 0.0019

# value lookup — system 85/88 kDa calcium-independent phospholipase A2 (Homo sapiens) (UniProt O60733), readout XI50 (mole fraction), item O=C(CCCCc1ccc(-c2ccccc2)cc1)C(F)(F)F
0.0189

What would you report for O=C(CCCCc1ccc(C(F)(F)F)cc1)C(F)(F)C(F)(F)F ?
0.0003

What would you report for O=C(CCCCc1ccc(C(F)(F)F)cc1)C(F)(F)F ?
0.0002
